nuclear beta-catenin stimulation reference
experiment: stimulators of nuclear beta-catenin in C2C12, primary screen, imaging, WNT3A-conditioned medium, mouse C2C12, NPC library (AID 1117326); settings: at 10 µM, stronger effect = higher value; also: reference of the scale not given here
// return numeric value only (unit: %, not printed)

MOLECULE	READOUT TYPE	DATA VALUE
CNC(=O)Oc1ccc2c(c1)[C@]1(C)CCN(C)[C@@H]1N2C	nuclear beta-catenin stimulation	-0.4
CCN[C@@H]1C[C@H](N)[C@@H](OC2OC(CN)=CCC2N)[C@H](O)[C@H]1O[C@H]1OC[C@](C)(O)[C@H](NC)[C@H]1O (stereo partly drawn)	nuclear beta-catenin stimulation	1.3

Q. Need nuclear beta-catenin stimulation of CC1=C(CC(=O)O)c2cc(F)ccc2/C1=C\c1ccc(S(C)=O)cc1 (stereo not drawn) , thanks.
A. -1.5

* * *

assay: stimulators of nuclear beta-catenin in C2C12, primary screen, imaging, WNT3A-conditioned medium, mouse C2C12, NPC library (AID 1117326); conditions: stimulation, at 2 µM, stronger effect = higher value; also: reference of the scale not given here
READOUT TYPE: nuclear beta-catenin stimulation (%)
// return numeric value only (unit: %, not printed)

For orientation, consider the following solved cases.
COMPOUND	nuclear beta-catenin stimulation [%]
COc1cc2[nH]c(=O)[nH]c(=O)c2cc1OC	1.1
O=C1[C@H](CC[C@H](O)c2ccc(F)cc2)[C@@H](c2ccc(O)cc2)N1c1ccc(F)cc1	-0.4
CCC(C(=O)OCCN1CCOC(c2ccccc2)C1C)c1ccccc1 (stereo not drawn)	1.6
Clc1ccc2c(c1)Nc1ccccc1S2	-2.3
COc1ccccc1OCC1CNC(=O)O1 (stereo not drawn)	0.2
O=C(c1ccccc1)c1ccccc1	1.3
CC1=C(/C=C/C(C)=C/C=C/C(C)=C/C(=O)O)C(C)(C)CCC1	8.1
CC(=O)Oc1ccc(C(=C2CCCCC2)c2ccc(OC(C)=O)cc2)cc1	1.4
NS(=O)(=O)c1ccc(Cl)c(S(N)(=O)=O)c1	-1
CC(=O)Oc1ccc(C2(c3ccc(OC(C)=O)cc3)C(=O)Nc3ccccc32)cc1	0.9

// next entry
Q. Need nuclear beta-catenin stimulation of C/C=C/c1ccc(O)c(OC)c1 , thanks.
A. 0.5

* * *

assay: CellTiter-Glo luminescent readout of SW480 viability loss, NPC library primary (AID 1117343); conditions: CellTiter-Glo luminescence; at 20 µM (top of the series)
The source made the active and inactive calls.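 How the source made its calls: active means compounds that lower viability of the colon cancer cells in the luminescence readout, with no numeric limit stated; inactive means the rest.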
Respond with a class label; see active, inactive

Below are worked cases with known answers.
COMPOUND	GROUP
NS(=O)(=O)c1cc2c(cc1C(F)(F)F)NC(Cc1ccccc1)NS2(=O)=O (stereo unspecified)	inactive
O=S(O)CO	inactive

Q. Any idea what this test logged for Clc1ccccc1-c1nc(-c2ccncc2)no1 ?
A. inactive

Q. Any idea what this test logged for OCC=Cc1ccccc1 ?
A. inactive

* * *

assay: survival rescue of mitochondrial mutant cells in low glucose, primary screen, MELAS cybrids, Rieske KO mouse fibroblasts, CellTiter-Glo (AID 1508586); details: Rieske KO mouse fibroblast survival, CellTiter-Glo 72 h;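 also: z relative to plate mean and SD of compound and empty wells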
READOUT TYPE: z-score
Lab note: record just the number, no unit beside it.

Q. Need z-score of CCCN1CCC(c2ccc(Nc3nc(Nc4cc(F)ccc4C(N)=O)c4cc[nH]c4n3)c(OC)c2)CC1 , thanks.
A. 7.31

Q. Need z-score of COc1ccc(CNC(=O)c2ccc(-c3cc(-c4nnc(C)o4)ccc3C)cc2)cc1 , thanks.
A. -0.248

Q. Need z-score of CS(=O)(=O)CCNCc1cc(-c2cc3c(Nc4ccc(OCc5cccc(F)c5)c(Cl)c4)ncnc3s2)cs1 , thanks.
A. -0.666

Q. Need z-score of NCc1ccc(-n2c(-c3nonc3N)nc3cnccc32)cc1 , thanks.
A. -0.216

Q. Need z-score of CN1CCC(n2cnc(-c3ccc(F)cc3)c2-c2ccnc(Nc3ccccc3)n2)CC1 , thanks.
A. -0.322

Q. Need z-score of OCCCNc1nccc(-c2c(-c3ccc(F)cc3)nn3cc(C(F)(F)F)ccc23)n1 , thanks.
A. 0.0984

Q. Need z-score of CCc1nn2ncccc2c1-c1ccnc(NC2CC2)n1 , thanks.
A. -0.208

* * *

experiment: JHH-DIPG-1 glioma cell viability, MIPE5.0 library, CellTiter-Glo luminescence, qHTS (AID 1347067); conditions: JHH-DIPG-1 glioma viability, CellTiter-Glo ATP luminescence;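 also: cells exposed to compound for 48 hours before readout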
Records with an inconclusive call do not appear. Active and inactive are the calls of the source. No cut-off is given here; in the data, nearly all actives have AC50 up to about 26 µM.
Respond with a class label; see t = active, f = inactive

COMPOUND	GROUP
CC(C)Oc1ccc2c(=O)c(-c3ccccc3)coc2c1	f

Q. Any idea what this test logged for CC(C)NCC(O)c1ccc(O)c(O)c1 (stereo unspecified) ?
A. f

Q. Any idea what this test logged for CCCCc1oc2ccccc2c1C(=O)c1cc(I)c(OCCN(CC)CC)c(I)c1 ?
A. t

Q. Any idea what this test logged for NC(=O)c1cnccn1 ?
A. f

Q. Any idea what this test logged for Cn1c(=O)c2[nH]cnc2n(C)c1=O ?
A. f

Q. Any idea what this test logged for CCCCCCNC(=O)n1cc(F)c(=O)[nH]c1=O ?
A. f

* * *

assay: viability rescue of complex I mutant cybrids, primary screen, cell-based, galactose medium, ATP luminescence (AID 1645843); settings: complex I mutant cybrid cells, 72 h, stronger effect = higher value;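 also: positive z means more ATP and so rescue of galactose-driven cybrid death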
Active and inactive are the calls of the source.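 Rule for the calls: active = z-score of at least 1.8 in each of two replicates, scored against plate mean and spread of sample wells; inactive = the rest.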
z-score reference

COMPOUND	z-score
NS(=O)(=O)c1cc2c(cc1C(F)(F)F)NC(Cc1ccccc1)NS2(=O)=O (configuration not stated)	1.88 (inactive)
C#C[C@]1(O)CC[C@H]2[C@@H]3CCC4=CC(=O)CC[C@@H]4[C@H]3CC[C@@]21CC	0.335 (inactive)
NC(=O)c1ccc(-c2nc(-c3ccc4c(c3)OCO4)c(-c3ccccn3)[nH]2)cc1	-0.03 (inactive)
NS(=O)(=O)c1cc(C2(O)NC(=O)c3ccccc32)ccc1Cl (configuration not stated)	0.15 (inactive)
CN(C)CCN(Cc1ccccc1)c1ccccn1	0.73 (inactive)

// next entry
Q. Need z-score of C[C@]12CCC(=O)C=C1CC[C@@H]1[C@@H]2C(=O)C[C@@]2(C)[C@H]1CC[C@]2(O)C(=O)CO , thanks.
A. 0.195 (inactive)

* * *

assay: growth inhibition of GSK3B-pretreated HCT116 cells – cell-based, CellTiter-Glo, 0.2 to 20 µM (AID 1117336); conditions: HCT116 viability after GSK3B inhibitor, at 20 µM, stronger effect = higher value
In plain terms, low viability decrease, meaning strictly below 10%, gives 1, and everything else gives 0.

Q. Does the reported viability decrease of the following compound sit strictly below 10%? C=C(CC)C(=O)c1ccc(OCC(=O)O)c(Cl)c1Cl
A. 0

Q. Does the reported viability decrease of the following compound sit strictly below 10%? CCN1CCN(c2cc(-c3ccc(F)cc3)c3c(n2)CCCCCC3)CC1
A. 0

* * *

assay: stimulators of nuclear beta-catenin in C2C12, primary screen, imaging, WNT3A-conditioned medium, mouse C2C12, NPC library (AID 1117326); details: stimulation, at 2 µM, stronger effect = higher value; also: reference of the scale not given here
READOUT TYPE: nuclear beta-catenin stimulation (%)
// return numeric value only (unit: %, not printed)

For orientation, consider the following solved cases.
COMPOUND	UNIT OF MEASUREMENT	nuclear beta-catenin stimulation
COc1ccc(CC2c3cc(OC)c(OC)cc3CCN2CCC(=O)OCCCCCOC(=O)CCN2CCc3cc(OC)c(OC)cc3C2Cc2ccc(OC)c(OC)c2)cc1OC (stereo not given)	%	0.5
CCN1C(=O)c2ccccc2C1Nc1ccc(OCCN2CCCCC2)cc1 (stereo not given)	%	0.3
O=C(O)c1[nH]n(-c2ccc(S(=O)(=O)O)cc2)c(=O)c1N=Nc1ccc(S(=O)(=O)O)cc1	%	-1.1
CC(=O)CCC(=O)O	%	-1.3
Cc1ccc(C(C)C)c(O)c1	%	0.8

// next entry
Q. Need nuclear beta-catenin stimulation of COc1cc2nc(N(C)CCCNC(=O)C3CCCO3)nc(N)c2cc1OC (stereo not given) , thanks.
A. 1.8

* * *

insulin secretion stimulation reference
assay: stimulators of insulin release from INS-1E, primary screen, cell-based, 5 mM glucose, NPC library (AID 1117329); details: rat INS-1E insulin secretion, at 10 µM, stronger effect = higher value; also: reference of the scale not given here
// return numeric value only (unit: %, not printed)

For orientation, consider the following solved cases.
MOLECULE	UNIT OF MEASUREMENT	insulin secretion stimulation
O=C(OCC(COC(=O)c1cccnc1)(COC(=O)c1cccnc1)COC(=O)c1cccnc1)c1cccnc1	%	1.6
Cc1ccc2ccc(Cl)cc2n1	%	1.25
O=C(O)C1CSC(C(=O)O)N1 (stereo unspecified)	%	-0.4
NC(Cc1ccc([N+](=O)[O-])cc1)C(=O)O (stereo unspecified)	%	-0.8
O=C(O)CNC(=O)CNC(=O)CNC(=O)CSC(=O)c1ccccc1	%	1.2
CC(=O)N/N=C/c1ccc([N+](=O)[O-])o1	%	-3.3

// next entry
Q. Need insulin secretion stimulation of CC[N+]1(CC)CCC(=C(c2ccccc2)c2ccccc2)C1C (stereo unspecified) , thanks.
A. 1.7
